test system: SW-620; test: NCI tumour cell line growth inhibition, 48 h
Active and inactive are the calls of the source. Cut-off read from the data, not from the text of the source: active = GI50 up to about 1.1 µM and inactive = higher.
MEASUREMENT_NAME: GI50

INSERT INTO measurements (compound, target_under_test, data_value) VALUES
  ('COc1cc2c(cc1OC)C1C=NC(C(=O)O)(C2)c2ccccc21 (stereo not given)', 'SW-620', '> 100 µM (inactive)'),
  ('O=S(=O)(c1ccccc1)c1ccc(/N=N/O)nc1', 'SW-620', '> 100 µM (inactive)'),
  ('COC(=O)C(Cc1ccc2c(c1)CCC2)Cc1ccc2c(c1)CCC2', 'SW-620', '> 100 µM (inactive)'),
  ('CCCC[C@H]1CCN2C[C@@H](O)[C@@H](O)[C@H]2[C@@H]1O', 'SW-620', '> 100 µM (inactive)'),
  ('COc1ccc(/C(Nc2ccccc2)=C(\CCl)c2ccccc2)cc1OC', 'SW-620', '46.2 µM (inactive)'),
  ('CN1C(=O)C(=CN)C(=O)N(C)C1=O', 'SW-620', '> 100 µM (inactive)'),
  ('CCOC(=O)C(C)NC(=O)NC12CC3CC(CC(F)(C3)C1)C2 (stereo not given)', 'SW-620', '> 100 µM (inactive)'),
  ('CC[C@@H]1OC2(C)CC(S(=O)(=O)c3ccccc3O)CC1O2 (stereo not given in full)', 'SW-620', '> 100 µM (inactive)'),
  ('CN1CN(c2ccccc2)C2(CCN(CCCN(C)c3ccc(F)cc3)CC2)C1=O', 'SW-620', '17.8 µM (inactive)'),
  ('C=C1[C@H](OC(C)=O)[C@H]2[C@@H](OC(C)=O)[C@@H](C)C[C@]2(C)C(=O)[C@H](C)/C=C/C(C)(C)C(=O)[C@H](OCC(C)C)[C@H]1OC(C)=O', 'SW-620', '> 25 µM (inactive)');
